test: LNP encapsulation efficiency (Quant-it Ribogreen); type: physicochemical; settings: mRNA LNP, cationic lipid/DSPC/cholesterol/PEG-lipid 50:10:38.5:1.5
Reported Property: Encapsulation efficiency (%)
Answers are plain numbers, in %.

• CCCCCCC(CCCCCC)OC(=O)CCCCCCCCCNC(=O)C(CCCCCCCCCC(=O)OC(CCCCCC)CCCCCC)N(CCCN1CCCC1)C(=O)CCCN1CCCC1 (stereo not drawn) = 96.30
• CCCCCCCCNC(=O)CCCCCNC(=O)C(CCCCCCCC)N(CCCN(C)C)C(=O)CCCCCC(=O)NC(CCCCCCC)CCCCCCC (stereo not drawn) = 97.50
• CCCCCCCCC(C(=O)NCCCCCCCCCC(=O)OCC1CC=CCC1)N(CCCN(C)C)C(=O)CCCCCCCCCC(=O)OC(CCCCCC)CCCCCC (stereo not drawn) = 60.65
• CCCCCCCCC(C(=O)NCCCCCCCCCC(=O)OC(CCCC)CCCCCC)N(CCCN(C)C)C(=O)CCCCCCCCCC(=O)OC(CCCC)CCCCCC (stereo not drawn) = 94.62
• CCCCCCCCNC(=O)C(CCCCCCCC)N(CCCN(CCO)CCO)C(=O)CCCCCCC(=O)OC(CCCCCCCC)CCCCCCCC (stereo not drawn) = 92.99

Please look at the following compound next.
(Q) Specify Encapsulation efficiency (%) for CCCCCCCC(C(=O)NCCCCCCCCCC(=O)OC(CCCCCC)CCCCCC)N(CCCN1CCCC1)C(=O)CCCCCCCCCC(=O)OCC12CC3CC(CC(C3)C1)C2 (stereo not drawn) and stop.
(A) 96.10

====

I'd appreciate it if you could supply PDI values for the items below.
test: LNP size and PDI by dynamic light scattering; assay type: physicochemical; conditions: mRNA LNP, cationic lipid/DSPC/cholesterol/PEG-lipid 50:10:38.5:1.5
Answers are plain numbers.

// solved cases for PDI follow
* CCCCCCCC(C(=O)NCCCCCCCCCC(=O)OC(CCCCCC)CCCCCC)N(CCCN1CCCC1)C(=O)CCCCCCCCCC(=O)OCC12CC3CC(CC(C3)C1)C2 (stereo not drawn) | 0.274
* CCCCCCC(CCCCCC)OC(=O)CCCCCCCCCNC(=O)CN(CCN(C)CCN(CC(=O)NCCCCCCCCCC(=O)OC(CCCCCC)CCCCCC)C(=O)CCCCCCCCCC(=O)OC(CCCCCC)CCCCCC)C(=O)CCCCCCCCCC(=O)OC(CCCCCC)CCCCCC | 0.183
* CCCCCCC(CCCCCC)OC(=O)CCCCCCCCCNC(=O)C(CCCCCCCCCC(=O)OC(CCCCCC)CCCCCC)N(CCCN(CCO)CCO)C(=O)CCCN(C)CCO (stereo not drawn) [Compound E2] | 0.143
* CCCCCCCCC(CCCCCC)C(=O)OCCCCCCN(CCCCO)CCCCCCOC(=O)C(CCCCCC)CCCCCCCC (stereo not drawn) | 0.082
* CCCCCCCCNC(=O)C(CCCCCCCC)N(CCCN(C)C)C(=O)CCCCCCC(=O)OC(CCCCCCCC)CCCCCCCC (stereo not drawn) | 0.11

Please look at the following compound next.
(Q) Specify PDI for CCCCCCCCC(CCCCCC)COC(=O)CCCCCNC(=O)C(CCCCC)N(CCCCN1CCCC1)C(=O)CCCCCC(=O)OCC(CCCCCC)CCCCCCCC (stereo not drawn) and stop.
(A) 0.19

====

test: LNP zeta potential; type: physicochemical; settings: mRNA LNP
I'd appreciate it if you could supply Zeta potential (mV) values for the items below.
Numbers only, in mV.

// solved cases for Zeta potential (mV) follow
• CCCCCCCC(C(=O)NCCCCCCCCCC(=O)OC(CCCCCC)CCCCCC)N(CCN(CO)CO)C(=O)CCCCCCCCCC(=O)OC(CCCCCC)CCCCCC (stereo not drawn) = −2.80
• CCCCCCCC(C(=O)NCCCCCCCCCC(=O)OC(CCCCCC)CCCCCC)N(CCCNC(=S)N(C)C)C(=O)CCCCCCCCCC(=O)OC(CCCCCC)CCCCCC (stereo not drawn) = 6.22

Please look at the following compound next.
(Q) Specify Zeta potential (mV) for CCCCCCCC(C(=O)NCCCCCCCCCC(=O)OC(CCCCCC)CCCCCC)N(CCCN1CCCC1)C(=O)CCCCCCCCCC(=O)OCC12CC3CC(CC(C3)C1)C2 (stereo not drawn) and stop.
(A) 4.99

====

assay: LNP encapsulation efficiency (Quant-it Ribogreen); type: physicochemical; details: mRNA LNP, cationic lipid/DSPC/cholesterol/PEG-lipid 50:10:38.5:1.5
Reported Property: Encapsulation efficiency (%)
Numbers only, in %.

// solved cases for Encapsulation efficiency (%) follow
* CCCCCCCCNC(=O)C(CCCCCC)N(CCCN(C)C)C(=O)CCCCCCC(=O)OC(CCCCCCCC)CCCCCCCC (centres unmarked) | 94.69
* CCCCCCC(CCCCCC)OC(=O)CCCCCCCCCNC(=O)C(CCCCCCCCCC(=O)OC(CCCCCC)CCCCCC)N(CCCN1CCN(C)CC1)C(=O)CCCN1CCN(C)CC1 (centres unmarked) | 82.13
* CCCCCCCC(C(=O)NCCCCCCCCCC(=O)OC(CCCCCC)CCCCCC)N(CCCNc1c(NC)c(=O)c1=O)C(=O)CCCCCCCCCC(=O)OC(CCCCCC)CCCCCC (centres unmarked) | 95.03
* CCCCCCCC(C(=O)NCCCCCCCCCC(=O)OC(CCCCCC)CCCCCC)N(CCCN1CCN(CCO)CC1)C(=O)CCCCCCCCCC(=O)OC(CCCCCC)CCCCCC (centres unmarked) | 92.99
* CCCCCCCC(C(=O)NCCCCCCCCCC(=O)OC(CCCCCC)CCCCCC)N(CCCNC(=S)N(C)C)C(=O)CCCCCCCCCC(=O)OC(CCCCCC)CCCCCC (centres unmarked) | 93.97

Could I get Encapsulation efficiency (%) for every one of these entries?
1. CCCCCCCCC(C(=O)NCCCCCCCCCC(=O)OCCCCCC)N(CCCN(C)C)C(=O)CCCCCCCCCC(=O)OC(CCCCCC)CCCCCC (centres unmarked)
2. CCCCC/C=C\C/C=C\CCCCCCCCNC(=O)C(CCCCCCCC)N(CCCCCCCC/C=C\C/C=C\CCCCC)C(=O)CCCN1CCN(C)CC1 (centres unmarked)
3. CCCCCCCCC(C(=O)NCCCCCCCCCC(=O)OC(CCCCCC)CCCCCC)N(CCCN(C)C)C(=O)CCCCCCCCCC(=O)OC(CCCCCC)CCCCCC (centres unmarked)
4. CCCCCCC(CCCCCC)OC(=O)CCCCCCCCCNC(=O)C(CCCCCCCCCC(=O)OC(CCCCCC)CCCCCC)N(CCCN(C)CCO)C(=O)CCCN(C)CCO (centres unmarked)
5. CCCCCCC(CCCCCC)OC(=O)CCCCCCCCCNC(=O)C(CCCCCCCCCC(=O)OC(CCCCCC)CCCCCC)N(CCCN(CCO)CCO)C(=O)CCCN(CC)CC (centres unmarked)
6. CCCCCCCC(C(=O)NCCCCCCCCCC(=O)OC(CCCCCC)CCCCCC)N(CCN1CCN(CCO)CC1)C(=O)CCCCCCCCCC(=O)OC(CCCCCC)CCCCCC (centres unmarked)

(A)
1. 93.95
2. 91.26
3. 71.39
4. 93.90
5. 95.18
6. 94.62

Could I get Encapsulation efficiency (%) for every one of these entries?
1. CCCCCCCCC(C(=O)NCCCCCCCCCC(=O)OCCCCCC)N(CCCN1CCCC1)C(=O)CCCCCCCCCC(=O)OCCCCCC (centres unmarked)
2. CCCCCCCCCCOCCCCCCCC(=O)N(CCCN(C)C)C(CCCCCCCC)C(=O)NCCCCCC(=O)OC(CCCCCCCC)CCCCCCCC (centres unmarked)
3. CCCCCCCCC(CCCCCC)COC(=O)CCCCCNC(=O)C(CCCCC)N(CCCN1CCCC1)C(=O)CCCCCC(=O)OCC(CCCCCC)CCCCCCCC (centres unmarked)
4. CCCCCCCC(C(=O)NCCCCCCCCCC(=O)OC(CCCCCC)CCCCCC)N(CCCN(C)CCO)C(=O)CCCCCCCCCC(=O)OC(CCCCCC)CCCCCC (centres unmarked)
5. CCCCCCC(CCCCCC)OC(=O)CCCCCCCCCNC(=O)C(CCCCCCCCCC(=O)OC(CCCCCC)CCCCCC)N(CCCN1CCN(CO)CC1)C(=O)CCCN1CCN(CCO)CC1 (centres unmarked)
6. CCCCCCCCNC(=O)C(CCCCCCCC)N(CCC1CCCN1C)C(=O)CCCCCCC(=O)OC(CCCCCCCC)CCCCCCCC (centres unmarked)
7. CCCCCCCC(C(=O)NCCCCCCCCCC(=O)OC(CCCCCC)CCCCCC)N(CCCN(CCO)CCO)C(=O)CCCCCCCCCC(=O)OCC12CC3CC(CC(C3)C1)C2 (centres unmarked)
8. CCCCCCCCNC(=O)C(CCCCCCCC)N(CCCN(C)C)C(=O)CCCCCC(=O)NC(CCCCCCC)CCCCCCC (centres unmarked)

(A)
[84.80, 54.08, 94.62, 91.38, 93.77, 95.23, 96.14, 95.33]
